Measured values drawn from ChEMBL document CHEMBL3044666 for this set.

- method: Cytotoxicity against BALB/C Mus musculus (mouse) lymph node cells after 24 hr by MTT assay
- Format: cell-based
measured metric: CC50 at 24 h (µM)
Only the number, expressed in µM, is required.

Summary for this compound, Cc1ccc(C(=O)N/N=C/c2ccc([N+](=O)[O-])cc2)c(O)c1 : CC50 at 24 h is 734

// recorded CC50 at 24 h for Cc1ccc(C(=O)N/N=C/c2ccccc2[N+](=O)[O-])c(O)c1 : 644

CC50 at 24 h measured on Cc1ccc(C(=O)N/N=C/c2cc(Br)ccc2O)c(O)c1 = 1500

Entry Cc1ccc(C(=O)N/N=C/c2cc(Cl)ccc2O)c(O)c1 , CC50 at 24 h reported as 560

CC50 at 24 h recorded for this compound, Cc1ccc(C(=O)N/N=C/c2ccc(Cl)cc2Cl)c(O)c1 , is 291

More entries:
Entry Cc1ccc(C(=O)N/N=C/c2ccccc2Cl)c(O)c1 — recorded CC50 at 24 h = 125

For reference, reported CC50 at 24 h for Cc1ccc(C(=O)N/N=C/c2cccc(Br)c2)c(O)c1 stands at 113

The value of CC50 at 24 h measured for the compound Cc1ccc(C(=O)N/N=C/c2cc(Br)cc(Br)c2O)c(O)c1 turned out to be 979

response.value for COc1cccc(/C=N/NC(=O)c2ccc(C)cc2O)c1 (field: CC50 at 24 h) = 672

Form: compound = Cc1ccc(C(=O)N/N=C/c2ccccc2O)c(O)c1 ; CC50 at 24 h = 761

response.value for Cc1ccc(C(=O)N/N=C/c2ccc(N(C)C)cc2)c(O)c1 (field: CC50 at 24 h) = 732

Lab book: CC50 at 24 h of COc1ccc(/C=N/NC(=O)c2ccc(C)cc2O)cc1 noted as 723

Entry Cc1ccc(C(=O)N/N=C/c2ccc(Cl)cc2)c(O)c1 ; CC50 at 24 h = 116
